target: T1, soluble extracellular domain of human IL-5 receptor alpha subunit (sIL-5Rα) (human, UniProt Q01344); test: BLI; Octet QKe, 30°C, 1× kinetics buffer in PBS pH 7.4; Ab immobilised on anti-human IgG Fc capture (AHC) biosensors, sIL-5Rα as analyte; association 300 s, dissociation 600 s; 1:1 binding model; conditions: both partners purified
T1 construct: human IL-5 receptor alpha subunit (IL-5Rα, CD125), extracellular domain, residues 21–333; subcloned from a cDNA of residues 1–420; Expressed from the pSecTag2A vector; migrates at ~50 kDa (glycosylated); A biotinylated form (BirA) was used only for library screening; also called sIL-5α; CD125; source: HEK293F, transiently transfected, purified (Ni-NTA); not shown: Avi, C-terminal, kept; His6, …
T1 sequence (Q01344 21-333): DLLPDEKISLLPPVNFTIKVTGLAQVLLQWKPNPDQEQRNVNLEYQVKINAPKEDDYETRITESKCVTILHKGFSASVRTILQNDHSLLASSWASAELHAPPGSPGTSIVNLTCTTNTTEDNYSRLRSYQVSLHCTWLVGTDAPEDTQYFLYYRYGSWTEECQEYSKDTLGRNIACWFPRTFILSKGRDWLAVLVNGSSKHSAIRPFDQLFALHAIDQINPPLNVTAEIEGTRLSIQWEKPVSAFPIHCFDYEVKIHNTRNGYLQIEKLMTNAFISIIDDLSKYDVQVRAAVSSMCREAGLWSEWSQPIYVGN
recorded.metric: koff (s⁻¹)

binder="hu2B7 humanized anti–IL-5Rα antibody (antibody, V domains shown, VH of hu2B7: CDRs of m2B7 grafted on the FRs of daclizumab, mouse ThrH93 (Kabat) kept; VL of hu2B7: CDRs of m2B7 grafted on the FRs of daclizumab, mouse AspL60 and AspL70 kept; Full-length human IgG1, kappa; source: HEK293F, transiently cotransfected, purified (Protein A)) VH: QVQLVQSGAEVKKPGSSVKVSCKASGYTFTSYWINWVRQAPGQGLEWIGHIYPSESYTNYNQKFKDKATLTVDKSTNTAYMELSSLRSEDTAVYYCTRDYYGRSYYYAMDYWGQGTTLTVSS VL: DIQMTQSPSTLSASVGDRVTITCKASQNVGTAVAWYQQKPGKAPKLLIYWASTRHTGVPDRFSGSGSGTDFTLTISSLQPDDFATYYCQQFGRYPYTFGSGTKVEVK" numeric_readout=0.00106
binder="5R65 (antibody, V domains shown, Human IgG1, kappa; selected as scFab by yeast display from the hu2B7 VH-CDR2 library; also called 5R65 Ab; source: HEK293F, purified (Protein A)) VH: QVQLVQSGAEVKKPGSSVKVSCKASGYTFTSYWINWVRQAPGQGLEWIGHIYPNKNENYYNHKFKDKATLTVDKSTNTAYMELSSLRSEDTAVYYCTRDYYGRSYYYAMDYWGQGTTLTVSS VL: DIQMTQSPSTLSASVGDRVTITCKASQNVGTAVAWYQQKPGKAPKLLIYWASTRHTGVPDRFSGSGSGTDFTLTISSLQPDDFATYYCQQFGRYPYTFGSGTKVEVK" numeric_readout=0.000329
binder="5R65.45 (antibody, V domains shown, as the VH of m6 (5R65) with mutations in VH-CDR3 (Kabat residues 95–100d were randomised); no mutations in VL-CDR3; Human IgG1, kappa; selected as scFab by yeast display from the 5R65 CDR3 library under kinetic screening; source: HEK293F, purified (Protein A)) VH: QVQLVQSGAEVKKPGSSVKVSCKASGYTFTSYWINWVRQAPGQGLEWIGHIYPNKNENYYNHKFKDKATLTVDKSTNTAYMELSSLRSEDTAVYYCTREYYGRSYYNAMDYWGQGTTLTVSS VL: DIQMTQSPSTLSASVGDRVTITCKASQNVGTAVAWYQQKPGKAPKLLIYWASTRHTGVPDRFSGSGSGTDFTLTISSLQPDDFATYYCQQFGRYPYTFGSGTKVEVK" numeric_readout=0.000181
